# system under test: ZFP SBS#1406 (synthetic)
# Sequence (chain, as listed by the source): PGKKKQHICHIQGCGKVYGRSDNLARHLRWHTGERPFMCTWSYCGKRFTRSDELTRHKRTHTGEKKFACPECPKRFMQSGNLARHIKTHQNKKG
# method: EMSA
# condition set: tags: MBP fusion
experimental endpoint: Kd (pM)
Note: unit pM is implicit; provide only the numeric part.

[Q] Fill in: Kd of GAAGCGGAG (dsDNA) DNA 1: GAAGCGGAG DNA 2: CTCCGCTTC is ___
[A] 25
